Tested on: ML2
experiment description: MTT growth inhibition, ML-2 myeloid leukemia cells
Type: cell-based, human
recorded conditions: Homo sapiens, ML-2, 72 h, read-out: GI50 ML2
readout kind: log10(GI50) (log10 of the value in nM)

- smiles string: "CCOC(=O)CCn1ccc2c3c(=O)cc(-c4ccccc4)[nH]c3ccc21"
  tested target: "ML2"
  log10(GI50): 0.70
- smiles string: "CCn1cc(C)c2c3c(=O)cc(-c4ccccc4)[nH]c3ccc21"
  tested target: "ML2"
  log10(GI50): 4.16
- smiles string: "CCn1ccc2c3c(=O)cc(-c4cccnc4)[nH]c3ccc21"
  tested target: "ML2"
  log10(GI50): 2.48
- smiles string: "CCn1cc(C#N)c2c3c(=O)cc(-c4ccccc4)[nH]c3ccc21"
  tested target: "ML2"
  log10(GI50): 2.74
- smiles string: "COc1cc(Cn2ccc3c4c(=O)cc(-c5ccccc5)[nH]c4ccc32)cc(OC)c1OC"
  tested target: "ML2"
  log10(GI50): 1.00

Hello, the source for this data is paper PMC2921709, in case you need it.
